Data credit: the RNAGym collection of RNA variant scans (doi:10.7554/elife.80360)

B1: HDV Ribozyme (parent)
chain: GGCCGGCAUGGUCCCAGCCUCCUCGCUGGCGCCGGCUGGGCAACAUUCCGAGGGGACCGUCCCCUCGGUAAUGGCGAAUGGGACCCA

- Variants of: B1
- experimental-details: self-cleavage, relative activity (ratio to wild type); higher = more cleavage; co-transcriptional
readout-type: self-cleavage
Number only, no unit.

Inquiry: Report self-cleavage for G53A C75G please.
Reply text: 0.156

Inquiry: What measured self-cleavage goes with C15A G74U ?
Reply text: 0.218

Inquiry: Look up self-cleavage: G11A C26U
Reply text: 1.12

Inquiry: Quick one: self-cleavage of U20A C61U ?
Reply text: 0.208

Inquiry: Query: self-cleavage; subject: U20C C86G
Reply text: 0.208

Inquiry: Given the variant U27A C86G , what is its reported self-cleavage?
Reply text: 0.918

Inquiry: Give its self-cleavage value. Item: G73C U79G
Reply text: 0.107

Inquiry: I am curious: what self-cleavage value has been reported for C7A U72A ?
Reply text: 0.308

Inquiry: For the variant U37A G81C , what self-cleavage is on record?
Reply text: 0.227
